Values were extracted from ChEMBL document CHEMBL1201862.

Let's look at some molecules and their measured GI50.
# System: LXFL 529
# Measurement notes: NCI tumour cell line growth inhibition, 48 h
Calls of active or inactive are those of the source. Cut-off read from the data, not from the text of the source: active = GI50 up to about 1.1 µM and inactive = higher.
Quantity: GI50

# Molecule, Tested target, Quantity, Recorded result
measured = [
    ("Cc1cccc2ns[s+]c12", "LXFL 529", "GI50", "37.8 µM (inactive)"),
    ("O=C(CC1(O)C(=O)Nc2ccccc21)c1ccncc1 (stereo not drawn)", "LXFL 529", "GI50", "> 100 µM (inactive)"),
    ("CC(=O)NC1=C(Nc2ccc(C)cc2)C(=O)c2ccccc2C1=O", "LXFL 529", "GI50", "23.6 µM (inactive)"),
]
